- Test system: Plasmodium berghei
- Measurement description: Screen against P. berghei liver stage (PbLuc), transformed with Luciferase, at 2uM
- Type: functional, HepG2
- Measurement parameters: tested at 2 uM
About 2,700 (4%) of roughly 68,000 compounds showed an effect of 50% or more. What follows is part of a selection rich in strong results, with near analogues and random picks from the rest.
Exercise: for every item that follows, state its recorded INHIBITION.
Write the quantity with the unit trailing the number.

# INHIBITION (molecule: CC(C(=O)NCc1ccnc(OC2CCCC2)c1)n1cncn1 (stereo not drawn) ) is -5.34%

# INHIBITION (molecule: CC(=O)N1CCC(C(=O)N(CC(F)F)c2cccc(Cl)c2)CC1 ) is 23.06%

# INHIBITION (molecule: CC(c1ccncc1)N(C)S(C)(=O)=O (stereo not drawn) ) is -22.2%

# INHIBITION (molecule: Cn1cc(CN2CCCCC2c2ccc(-c3cccc(Cl)c3)nc2)cn1 (stereo not drawn) ) is 15.59%

# INHIBITION (molecule: COCC(=O)N1CCN(C(C)C(=O)NC(C)C)CC1 (stereo not drawn) ) is 61.91%

# INHIBITION (molecule: CCN1CC2(CCOCC2)c2cc(NS(=O)(=O)CC)ccc21 ) is 16.33%

# INHIBITION (molecule: C1CC(N2Cc3nnn(CC4CC4)c3C(COCC3CC3)C2)C1 (stereo not drawn) ) is 10.71%

# INHIBITION (molecule: COCC(=O)NCC1(COc2cccnc2)C[C@@H](O)[C@@H](O)C1 (stereo partly drawn) ) is -40.44%

# INHIBITION (molecule: CC1CCCN(Cc2cccc(C(=O)Nc3nccs3)c2)C1 (stereo not drawn) ) is 63.46%

# INHIBITION (molecule: Fc1ccc(CN2CCCC3(COCCN(Cc4c[nH]nn4)C3)C2)cc1 (stereo not drawn) ) is 23.81%

# INHIBITION (molecule: Cc1ncccc1C(=O)Nc1cccc(C[S+](C)[O-])c1C (stereo not drawn) ) is 31.58%

# INHIBITION (molecule: CCCC1CCCN(C(=O)CCn2cccn2)CC1 (stereo not drawn) ) is 63.68%

# INHIBITION (molecule: O=C(NCC1OCCc2cn(CC3CCOCC3)nc21)c1ccncc1 (stereo not drawn) ) is 56.71%

* * *

- System: Plasmodium berghei
- Measurement description: Screen against P. berghei liver stage (PbLuc), transformed with Luciferase, at 2uM
- Type: functional, HepG2
- Measurement parameters: tested at 2 uM
The campaign covered roughly 68,000 compounds. About 2,700 (4%) showed an effect of 50% or more. The entries come from a sample that favours strong results as a whole.
Kindly apply the following: T if INHIBITION is less than 20%, F in every other case.

Confirm or reject: INHIBITION of COc1ncccc1NC(=O)N(Cc1ccco1)C1CC1 lies strictly below 20%
F

Confirm or reject: INHIBITION of O=C(NCC1CCOCC1)c1cc(-c2ccncc2)c2cnccc2n1 lies strictly below 20%
T

Confirm or reject: INHIBITION of CCOCCCNC(=O)NCc1c(C)nn(C)c1C lies strictly below 20%
T

Confirm or reject: INHIBITION of Cc1nn(C)cc1CN1CCCC(n2c(=O)oc3ccc(Cl)cc32)C1 (stereo not drawn) lies strictly below 20%
T

Confirm or reject: INHIBITION of CNC(=O)NCC(=O)N1CCCC1Cc1cccc(F)c1 (stereo not drawn) lies strictly below 20%
F

Confirm or reject: INHIBITION of Cc1ccc(CN(C(=O)NCC2CCCO2)C2CC2)o1 (stereo not drawn) lies strictly below 20%
F

Confirm or reject: INHIBITION of O=c1cc(C2CCNCC2)nc(CCc2ccccn2)[nH]1 lies strictly below 20%
T

Confirm or reject: INHIBITION of CCNC(=O)N1CCc2ccc(NC(=O)C(C)c3ccsc3)cc21 (stereo not drawn) lies strictly below 20%
T

* * *

Exercise: for every item that follows, state its recorded INHIBITION.
- Test system: Plasmodium berghei
- Measurement description: Screen against P. berghei liver stage (PbLuc), transformed with Luciferase, at 2uM
- Format: functional, HepG2
- Measurement parameters: tested at 2 uM
Out of some 68,000 compounds screened, about 2,700 (4%) showed an effect of 50% or more. Only a selection was taken, and strong results are over-represented in it overall.
Number only, in %; omit the unit.

Short answer on Plasmodium berghei for Cn1ccc(NC(=O)CN2C[C@@H]3CC[C@H]2CN(S(C)(=O)=O)C3)n1 , INHIBITION: 48.21

Short answer on Plasmodium berghei for CS(=O)(=O)NCCCNC(=O)c1cccc(-n2cccc2)c1 , INHIBITION: 30.31

Short answer on Plasmodium berghei for CCc1nc(C2CCCN2C(=O)c2ccc3c(c2)COC3)no1 (stereo not drawn) , INHIBITION: 16.18

* * *

- Test system: Plasmodium berghei
- Measurement description: Screen against P. berghei liver stage (PbLuc), transformed with Luciferase, at 2uM
- Format: functional, HepG2
- Measurement parameters: tested at 2 uM
In all, about 68,000 compounds went through this assay and about 2,700 (4%) showed an effect of 50% or more. This excerpt belongs to a sample that is enriched for strong results.
Exercise: for every item that follows, state its recorded INHIBITION.
Number only, in %; omit the unit.

# INHIBITION (compound: CN(Cc1n[nH]c2c1CCCC2)c1cc(N2CCOCC2)nc(N)n1 ) is -32.88

# INHIBITION (compound: CSCC(C)(O)CNS(=O)(=O)c1cccc(C)c1 (stereo not given) ) is 9.27

# INHIBITION (compound: Cc1ccc2c(c1)C(=O)NCC1(CCN(Cc3ccccc3)CC1)O2 ) is 34.9

# INHIBITION (compound: Cc1c(-c2nc(-c3cccc(CN4CCOCC4)c3)no2)cnn1C ) is 35.56

# INHIBITION (compound: Cc1[nH]/c(=N\C(=O)c2csc(NC3CCCC3)n2)sc1C ) is 34.93

# INHIBITION (compound: CN1Cc2c(C(=O)Nc3cccnc3)ncn2-c2ccccc2S1(=O)=O ) is 8.85

# INHIBITION (compound: COc1ccc(C2=Nn3c(CN)nnc3-c3ccccc3C2)cc1 ) is 42.64

# INHIBITION (compound: Cn1nccc1CCC(=O)N1CCCC(Cc2cccnc2)C1 (stereo not given) ) is -24.85

# INHIBITION (compound: N#CCCN(C(=O)CN1CCCC1c1ccsc1)c1ccccc1F (stereo not given) ) is 73.05

# INHIBITION (compound: CSCC(C)(O)CNS(=O)(=O)c1ccc(Br)cc1 (stereo not given) ) is 9.27

# INHIBITION (compound: CC(NC(=O)NCCn1ccnc1)c1ccc2c(c1)OCCCO2 (stereo not given) ) is -16.99

# INHIBITION (compound: NC(=O)CN1CCCC1c1csc(Nc2cnccn2)n1 (stereo not given) ) is -20.73

# INHIBITION (compound: CN1CCN(Cc2ccccc2Oc2ccc(C(N)=O)cn2)CC1 ) is 8.73

# INHIBITION (compound: CN(CCn1cccn1)S(=O)(=O)c1cccc(F)c1C#N ) is -2.19

# INHIBITION (compound: Cc1ccc(NC2CCCN(C3Cc4ccccc4C3)C2)nn1 (stereo not given) ) is 3.91

# INHIBITION (compound: Cc1ccc2c(c1)C(=O)NCC1(CCN(C(=O)c3sccc3C)CC1)O2 ) is 46.15

# INHIBITION (compound: O=C([C@@H]1C[C@@H]2CCN(C3CCOCC3)C[C@@H]2O1)N1CCCC1 ) is 65.26

# INHIBITION (compound: O=C(Cc1cnc(-c2c(Cl)cccc2Cl)s1)N1CCOCC1 ) is 56.75

# INHIBITION (compound: Nc1nc(NCCc2[nH]nc3c2CCCC3)cc(N2CCOCC2)n1 ) is 67.28

# INHIBITION (compound: Cc1ccc(C(=O)N2C[C@H]3CCC[C@@]3(COCc3cccnc3)C2)s1 ) is -5.01

* * *

Exercise: for every item that follows, state its recorded INHIBITION.
- Test system: Plasmodium berghei
- Measurement description: Screen against P. berghei liver stage (PbLuc), transformed with Luciferase, at 2uM
- Format: functional, HepG2
- Measurement parameters: tested at 2 uM
Screen size: about 68,000 compounds; about 2,700 (4%) showed an effect of 50% or more. Only a selection was taken, and strong results are over-represented in it overall.
Number only, in %; omit the unit.

# INHIBITION (molecule: C[C@H]1C[C@H]2CN(Cc3ccccn3)CC[C@@H]2O1 ) is 66.23

# INHIBITION (molecule: O=C(c1ccnc(-n2ccnc2)c1)N1CCCC(n2cccn2)C1 (stereo not given) ) is -58.05

# INHIBITION (molecule: CCC(=O)c1ccc(OCC(=O)NC(C)c2nnc(C)[nH]2)cc1 (stereo not given) ) is -20.29

# INHIBITION (molecule: O=C(c1ccc(-n2cnnn2)cc1)N1CCCC(n2ccnc2)C1 (stereo not given) ) is 43.79

# INHIBITION (molecule: O=C(c1ccc(-n2cnnc2)cc1)N1CCCC(n2ccnc2)C1 (stereo not given) ) is 56.02

# INHIBITION (molecule: CN1CCc2[nH]cnc2C12CCN(Cc1ccc(S(C)(=O)=O)cc1)CC2 ) is 18.54

# INHIBITION (molecule: COc1ccccc1C1CCCN1CC(=O)N1CCC(C(N)=O)CC1 (stereo not given) ) is 50.32

# INHIBITION (molecule: c1c(CN2CCCC2)nc2n1CCNC2 ) is -102.41

# INHIBITION (molecule: O=C(c1ccnc(-n2ccnc2)c1)N1CCCC(n2ccnc2)C1 (stereo not given) ) is 70.27

# INHIBITION (molecule: N[C@H]1c2ccccc2C[C@@H]1NC(=O)C1CCN(Cc2ccco2)CC1 ) is 22.88

# INHIBITION (molecule: CN(C)CCN1CCC2(CCN(C(=O)c3cccnc3)CC2)C1=O ) is 6.66

# INHIBITION (molecule: O=C(c1ccc2c(c1)OCO2)N1CCCC(n2ccnc2)C1 (stereo not given) ) is -0.05

# INHIBITION (molecule: C[C@H]1C[C@@H]2CCN(Cc3ccccn3)C[C@H]2O1 ) is 0.78

# INHIBITION (molecule: COc1ccccc1[C@@H]1CN(CC(=O)N2CCCCC2)C[C@H]1C(=O)O ) is -36.91

# INHIBITION (molecule: COc1cc(N2CCC3(CC2)OCC(=O)NC3C)ncn1 (stereo not given) ) is -7.03

# INHIBITION (molecule: C[C@@H]1C[C@@H]2CCN(Cc3ccccn3)C[C@H]2O1 ) is 2.98

# INHIBITION (molecule: Cc1cnc(C)c(Oc2ccc(CN3CCCC3)cc2Cl)n1 ) is -9.5

# INHIBITION (molecule: COc1ccc(OCc2nc(C(=O)N3CCCNC(=O)C3)co2)cc1 ) is 22.84

# INHIBITION (molecule: N#Cc1ccc(N2CCCN(CC(=O)N3CCOCC3)CC2)cc1 ) is -45.9

# INHIBITION (molecule: CCN1CCCC1CNC(=O)c1cc(COc2cccc(F)c2)[nH]n1 (stereo not given) ) is 21.67
